Measured values drawn from the RNAGym collection of RNA variant scans (doi:10.1073/pnas.2313332121) for this set.

B1: TPR t1 (parent)
chain: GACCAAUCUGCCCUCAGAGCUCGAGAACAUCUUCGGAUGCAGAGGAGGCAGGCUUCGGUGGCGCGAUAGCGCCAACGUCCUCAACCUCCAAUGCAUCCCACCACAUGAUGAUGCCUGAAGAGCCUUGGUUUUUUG

Variants of: B1
Experiment: polymerase ribozyme fitness, log enrichment relative to wild type (log ratio); higher = more active; in vitro selection for triplet polymerase activity
The reader will find reported polymerase ribozyme fitness (log ratio) values listed item by item below.
Lab note: write the figure by itself, no unit.

[[record]]
item_sequence = "GACCAAUCUGCCCUCAGAGCUCGAGAACAUCUUCGGAUGCAGAGGAGGAAGGCUUCGGUGGCGCGAUAGCGCCAACGUCCUCAACCUCCAAUGCAUCCCACCACAUGAUGAUGCCGGAAGAGCCUUGGUUUUUUG"
measured_number = -2.39

[[record]]
item_sequence = "GACCAAUCUGCCCUCAGAGCUCGAGAACAUCUUCGGAUGCAGAGGAGGCAGGCUUCAGUGGCGCGAUACCGCCAACGUCCUCAACCUCCAAUGCAUCCCACCACAUGAUGAUGCCUGAAGAGCCUUGGUUUUUUG"
measured_number = -1.82

[[record]]
item_sequence = "GACCAAUCUACCCUCAGAGCUCGAGAACAUCUUCGGAUGCAGAGGAGGCAGGCUUCGGUGGCGCGAUAGCGCCAACGUCCUCAACCUCCAAUGCAUUCCACCACAUGAUGAUGCCUGAAGAGCCUUGGUUUUUUG"
measured_number = -0.852

[[record]]
item_sequence = "GACCAAUCUGCCCUCAGAGCUCGAGAACAUCUUCGGAUGCAGAGGAGGCAGGCUUUGGUGGCGCGAUAGCGUCAACGACAUCAACCUCCAAUGCAUCCCACCACAUGAUGAUGCCUGAAGAGCCUUGGUUUUUUG"
measured_number = -4.1

[[record]]
item_sequence = "GACCAAUCUGGCCUCUGAGCUCGAGAACAUCUUCGGAUGCAGAGGAGGCAGGCUUCGGUGGCGCGAUAGCGCCAACGUCCUCAACCUCCAAUUCAUCCCCCCACAUGAUGAUGCCUGAAGAGUCUUGGUUUUUUG"
measured_number = -3.13


Q: What does the data say about its polymerase ribozyme fitness (log ratio)? Entry: GACCAAUCUGCCCUCAGAGCUCGAGAACAUCUUCGGAUGCAGAGGAGGCAGGCUUCGGUGGCUCGAUACCGCCAACGUCCUCAACCUCCAAUGCAUCCCACCACAUGAUGAUGCCUGAAGAGCCUUGGUUUUUUG
A: -4.76

Q: Request: GACCAAUCUGCCCUCAGAGCUCGAGAACAUCUUCGGAUGCAGAGGAGGCAGGCUUCGGUGGCGCGAUAGAGCCAACGUCCUCAACCUCCAAUGCAUCCCACCACAUGAUGAUGCCUGAAGAGACUUGGUUUUUUG
A: -0.557
